- ASSAY_PROCEDURE: in vivo
- MEASUREMENT_CONDITIONS: rat, iv, 1 mg/kg
EXPERIMENTAL_READOUT: half-life (h)
The reply should be a number in h, with the unit left off.

# half-life (molecule: FC1CCN(CCOc2ccc(C3CCC4(CC3)OOC3(OO4)C4CC5CC(C4)CC3C5)cc2)CC1 (stereo not shown) [Compound E209] ) is 4

* * *

- ASSAY_PROCEDURE: In vitro intrinsic clearance, rat liver microsomes (Chem Partners)
- Type: in vitro ADME
- MEASUREMENT_CONDITIONS: rat (R) liver microsomes
Short version: CLint scaled at least 60 mL/min/kg is YES, less is NO.

Solved entries:
[[record]]
compound = "c1cc(C2CCC3(CC2)OOC2(OO3)C3CC4CC(C3)CC2C4)ccc1OCCN1CCOCC1 (stereo not drawn) [Compound 4]"
group = "YES"

[[record]]
compound = "CS(=O)(=O)N1CCN(CCOc2ccc(C3CCC4(CC3)OOC3(OO4)C4CC5CC(C4)CC3C5)cc2)CC1 (stereo not drawn) [Compound 6]"
group = "NO"

[[record]]
compound = "c1cc(C2CCC3(CC2)OOC2(OO3)C3CC4CC(C3)CC2C4)ccc1OCCCN1CCOCC1 (stereo not drawn) [Compound 5]"
group = "YES"

[[record]]
compound = "FC1CCN(CCOc2ccc(C3CCC4(CC3)OOC3(OO4)C4CC5CC(C4)CC3C5)cc2)CC1 (stereo not drawn) [Compound E209]"
group = "YES"


Now examine the next entry.
API: above_or_equal(metric=CLint scaled, cutoff=60 mL/min/kg) for item CS(=O)(=O)N1CCN(CCCOc2ccc(C3CCC4(CC3)OOC3(OO4)C4CC5CC(C4)CC3C5)cc2)CC1 (stereo not drawn) [Compound 7]
NO

* * *

- Test system: P. falciparum strains (sensitive and resistant)
- ASSAY_PROCEDURE: microbe, parasite or virus in culture
- Type: cell-based
- MEASUREMENT_CONDITIONS: Plasmodium falciparum, NF54, strain NF54 (chloroquine sensitive), mean ± SD n=3
EXPERIMENTAL_READOUT: pIC50
On this scale, pIC50 is minus log10 of a concentration expressed in M (mol/L).

In the examples that follow, each entry is paired with its recorded pIC50.
[[record]]
molecule = "FC1CCN(CCOc2ccc(C3CCC4(CC3)OOC3(OO4)C4CC5CC(C4)CC3C5)cc2)CC1 (stereo not drawn)"
measured_on = "P. falciparum strains (sensitive and resistant)"
observed = 8.28

[[record]]
molecule = "C[C@H]1[C@H](OC(=O)CCC(=O)O)O[C@@H]2O[C@@]3(C)CC[C@H]4[C@H](C)CC[C@@H]1[C@@]24OO3 [Artesunate, artesunate]"
measured_on = "P. falciparum strains (sensitive and resistant)"
observed = 8.33


Let us move to another entry and its pIC50.
Known value: P. falciparum strains (sensitive and resistant) pIC50 of the molecule CCN(CC)CCCC(C)Nc1ccnc2cc(Cl)ccc12 (stereo not drawn) equals 8.23

* * *

- ASSAY_PROCEDURE: Metabolic stability and metabolite profile in mouse liver microsomes
- Type: in vitro ADME
- MEASUREMENT_CONDITIONS: mouse liver microsomes, substrate 5 µM; read-out: Degradation half-life
EXPERIMENTAL_READOUT: half-life at 5 µM (h)
The reply should be a number in h, with the unit left off.

# half-life at 5 µM (molecule: FC1CCN(CCOc2ccc(C3CCC4(CC3)OOC3(OO4)C4CC5CC(C4)CC3C5)cc2)CC1 (stereo not shown) [Compound E209] ) is 2.48

* * *

- ASSAY_PROCEDURE: Metabolic stability and metabolite profile in mouse liver microsomes
- Assay type: in vitro ADME
- MEASUREMENT_CONDITIONS: mouse liver microsomes, substrate 1 µM; read-out: In vitro CLint
EXPERIMENTAL_READOUT: microsomal CLint at 1 µM (µL/min/mg)
The reply should be a number in µL/min/mg, with the unit left off.

# microsomal CLint at 1 µM (compound: FC1CCN(CCOc2ccc(C3CCC4(CC3)OOC3(OO4)C4CC5CC(C4)CC3C5)cc2)CC1 (stereo not shown) [Compound E209] ) is 13

* * *

- ASSAY_PROCEDURE: Metabolic stability and metabolite profile in rat liver microsomes
- Format: in vitro ADME
- MEASUREMENT_CONDITIONS: rat liver microsomes, substrate 5 µM; read-out: Degradation half-life
EXPERIMENTAL_READOUT: half-life at 5 µM (min)
The reply should be a number in min, with the unit left off.

# half-life at 5 µM (molecule: FC1CCN(CCOc2ccc(C3CCC4(CC3)OOC3(OO4)C4CC5CC(C4)CC3C5)cc2)CC1 (stereo not shown) [Compound E209] ) is 54

* * *

- ASSAY_PROCEDURE: Metabolic stability and metabolite profile in human liver microsomes
- MEASUREMENT_CONDITIONS: human, liver microsomes
EXPERIMENTAL_READOUT: half-life at 1 µM (h)
The reply should be a number in h, with the unit left off.

# half-life at 1 µM (molecule: FC1CCN(CCOc2ccc(C3CCC4(CC3)OOC3(OO4)C4CC5CC(C4)CC3C5)cc2)CC1 (stereo not shown) ) is 1.13

* * *

- ASSAY_PROCEDURE: Metabolic stability and metabolite profile in rat liver microsomes
- Assay type: in vitro ADME
- MEASUREMENT_CONDITIONS: rat liver microsomes, substrate 1 µM; read-out: Degradation half-life
EXPERIMENTAL_READOUT: half-life at 1 µM (min)
The reply should be a number in min, with the unit left off.

# half-life at 1 µM (compound: FC1CCN(CCOc2ccc(C3CCC4(CC3)OOC3(OO4)C4CC5CC(C4)CC3C5)cc2)CC1 (stereo not shown) [Compound E209] ) is 48

* * *

- MEASURED_ON: Sigma 2 receptors (Homo sapiens, UniProt Q5BJF2)
- Construct: CEREP
- Sequence (Q5BJF2 whole entry): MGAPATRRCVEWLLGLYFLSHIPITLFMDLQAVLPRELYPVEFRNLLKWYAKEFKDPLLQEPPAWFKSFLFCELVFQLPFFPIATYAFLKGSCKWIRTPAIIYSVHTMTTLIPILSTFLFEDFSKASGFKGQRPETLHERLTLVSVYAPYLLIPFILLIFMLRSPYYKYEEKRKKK
- ASSAY_PROCEDURE: CEREP radioligand binding screen, Sigma 2
pIC50: −log10 of the molar value.
EXPERIMENTAL_READOUT: pIC50

# pIC50 (compound: FC1CCN(CCOc2ccc(C3CCC4(CC3)OOC3(OO4)C4CC5CC(C4)CC3C5)cc2)CC1 (stereo not shown) [Compound E209] ) is ~6.70

* * *

Item-by-item account of pIC50
- Test system: P. falciparum strains (sensitive and resistant)
- ASSAY_PROCEDURE: microbe, parasite or virus in culture
- Type: cell-based
- MEASUREMENT_CONDITIONS: Plasmodium falciparum, strain 7G8 (chloroquine resistant), mean ± SD n=3
On this scale, pIC50 is minus log10 of a concentration expressed in M (mol/L).

In the examples that follow, each entry is paired with its recorded pIC50.
[[record]]
compound = "CCN(CC)CCCC(C)Nc1ccnc2cc(Cl)ccc12 (stereo not drawn) [Chloroquine, chloroquine]"
experimental_readout = "pIC50"
observed = 7.26

[[record]]
compound = "C[C@H]1[C@H](OC(=O)CCC(=O)O)O[C@@H]2O[C@@]3(C)CC[C@H]4[C@H](C)CC[C@@H]1[C@@]24OO3 [Artesunate, artesunate]"
experimental_readout = "pIC50"
observed = 8.74


# pIC50 (compound: FC1CCN(CCOc2ccc(C3CCC4(CC3)OOC3(OO4)C4CC5CC(C4)CC3C5)cc2)CC1 (stereo not drawn) [Compound E209] ) is 8.54

* * *

Item-by-item account of IC50
- Test system: P. falciparum clinical field isolates
- ASSAY_PROCEDURE: microbe, parasite or virus in culture
- Assay type: cell-based
- MEASUREMENT_CONDITIONS: Plasmodium falciparum, read-out: Median IC50
The reply should be a number in nM, with the unit left off.

[[record]]
compound = "CCN(CC)CCCC(C)Nc1ccnc2cc(Cl)ccc12 (centres unmarked)"
measured_on = "P. falciparum clinical field isolates"
observed = 85.5


# IC50 (compound: OC(c1cc(C(F)(F)F)nc2c(C(F)(F)F)cccc12)C1CCCCN1 (centres unmarked) ) is 12.7

# IC50 (compound: Clc1ccc2c(N3CCN(CCCN4CCN(c5ccnc6cc(Cl)ccc56)CC4)CC3)ccnc2c1 ) is 35.6

# IC50 (compound: CCN(CC)Cc1cc(Nc2ccnc3cc(Cl)ccc23)ccc1O ) is 25.6

# IC50 (compound: FC1CCN(CCOc2ccc(C3CCC4(CC3)OOC3(OO4)C4CC5CC(C4)CC3C5)cc2)CC1 (centres unmarked) ) is 15.7

* * *

- ASSAY_PROCEDURE: Metabolic stability and metabolite profile in mouse liver microsomes
- Format: in vitro ADME
- MEASUREMENT_CONDITIONS: mouse liver microsomes, substrate 1 µM; read-out: Degradation half-life
EXPERIMENTAL_READOUT: half-life at 1 µM (h)
The reply should be a number in h, with the unit left off.

# half-life at 1 µM (compound: FC1CCN(CCOc2ccc(C3CCC4(CC3)OOC3(OO4)C4CC5CC(C4)CC3C5)cc2)CC1 (stereo not shown) [Compound E209] ) is 2.2

The values you see were collected from paper PMC5458052.
